System: HRT-18 cells
Assay Info: Cell viability assay (MTT) in HRT-18 cells
Recorded Conditions: drug 2 alone (fast synergy screening table)
Measurement Kind: CC50

Lookup: Field: CC50 (HRT-18 cells). Entry: COc1c(C)c2c(c(O)c1C/C=C(\C)CCC(=O)OCCN1CCOCC1)C(=O)OC2 [Mycophenolate mofetil]
Found: > 10 µM

* * *

Assay Info: Cell viability assay (MTT) in HRT-18 cells
Recorded Conditions: human, CC50 (μM), drug 2 alone (fast synergy screening table)
Structures can show the parent of a compound that is named as a salt.
Answer each item with its documented CC50 at 48 h.

>>> data_value("CCN(CC)Cc1cc(Nc2ccnc3cc(Cl)ccc23)ccc1O")
"> 10 µM"

Value sought for every listed compound: CC50 at 48 h.
1. CCC(CC)COC(=O)[C@H](C)N[P@](=O)(OC[C@H]1O[C@@](C#N)(c2ccc3c(N)ncnn23)[C@H](O)[C@@H]1O)Oc1ccccc1
2. Cc1ccc(Sc2ccccc2N2CCNCC2)c(C)c1
3. NC(=O)c1ncn([C@@H]2O[C@H](CO)[C@@H](O)[C@H]2O)n1
4. CC(C)/N=c1\cc2n(-c3ccc(Cl)cc3)c3ccccc3nc-2cc1Nc1ccc(Cl)cc1
5. C[C@H]1O[C@@H](O[C@H]2[C@@H](O)C[C@H](O[C@H]3[C@@H](O)C[C@H](O[C@H]4CC[C@@]5(C)[C@H](CC[C@@H]6[C@@H]5CC[C@]5(C)[C@@H](C7=CC(=O)OC7)CC[C@]65O)C4)O[C@@H]3C)O[C@@H]2C)C[C@H](O)[C@@H]1O
6. C[C@@H]1O[C@@H](O[C@H]2C[C@@H](O)[C@]3(CO)[C@H]4[C@H](O)C[C@]5(C)[C@@H](C6=CC(=O)OC6)CC[C@]5(O)[C@@H]4CC[C@]3(O)C2)[C@H](O)[C@H](O)[C@H]1O
7. CCOC(=O)C1=C(COCCN)NC(C)=C(C(=O)OC)C1c1ccccc1Cl (stereo not shown) [Amlodipine benzenesulphonate]
8. CCCCCCCCc1ccc(CCC(N)(CO)CO)cc1 [Fingolimod hydrochloride]

Found:
2.5 µM
> 10 µM
> 10 µM
> 10 µM
0.08 µM
0.028 µM
> 10 µM
> 10 µM

* * *

Give EC50 for every item shown.
Tested on: rHCoVs-OC43
Assay Info: organism not typed
Type: cell-based
Recorded Conditions: drug alone; HRT-18 cells, MOI 0.025, 48 h treatment, decrease of Rluc; read-out: EC50
Structures can show the parent of a compound that is named as a salt.
Numbers only, in nM.

>>> data_value("Oc1c(Cl)cc(Cl)c(Cl)c1Cc1c(O)c(Cl)cc(Cl)c1Cl")
390
>>> data_value("CCCCCCCCc1ccc(CCC(N)(CO)CO)cc1 [Fingolimod hydrochloride]")
3900
>>> data_value("CC(C)COc1ccc(CNC(=O)N(Cc2ccc(F)cc2)C2CCN(C)CC2)cc1")
6000
>>> data_value("CCOC(=O)C1=C(COCCN)NC(C)=C(C(=O)OC)C1c1ccccc1Cl (centres unmarked) [Amlodipine benzenesulphonate]")
5200
>>> data_value("CC(C)/N=c1\\cc2n(-c3ccc(Cl)cc3)c3ccccc3nc-2cc1Nc1ccc(Cl)cc1")
1800

I would be grateful if you could provide EC50 for each of the following entries.
1. OCCN(CCO)c1nc(N2CCCCC2)c2nc(N(CCO)CCO)nc(N3CCCCC3)c2n1
2. CCN(CC)CCCC(C)Nc1ccnc2cc(Cl)ccc12 (centres unmarked)
3. C[C@H]1O[C@@H](O[C@H]2[C@@H](O)C[C@H](O[C@H]3[C@@H](O)C[C@H](O[C@H]4CC[C@@]5(C)[C@H](CC[C@@H]6[C@@H]5CC[C@]5(C)[C@@H](C7=CC(=O)OC7)CC[C@]65O)C4)O[C@@H]3C)O[C@@H]2C)C[C@H](O)[C@@H]1O
4. CCC(CC)COC(=O)[C@H](C)N[P@](=O)(OC[C@H]1O[C@@](C#N)(c2ccc3c(N)ncnn23)[C@H](O)[C@@H]1O)Oc1ccccc1
5. CCN(CC)C(=S)SSC(=S)N(CC)CC
6. CCN(CC)CCOc1ccc2c(c1)C(=O)c1cc(OCCN(CC)CC)ccc1-2 [Tilorone dihydrochloride]

Found:
1. 4100
2. 66
3. 21
4. 34
5. 180
6. 14

* * *

Tested on: Calu3 cells
Assay Info: Cell viability assay (MTT) in Calu3 cells
Format: cell-based, Human
Recorded Conditions: Calu3 (C), read-out: SARS-CoV-2 CC50
Measurement Kind: CC50

Lookup: Name the reported CC50 value associated with the compound CC(C)C(=O)OC[C@H]1O[C@@H](n2cc/c(=N\O)[nH]c2=O)[C@H](O)[C@@H]1O
Found: > 10 µM

* * *

System: rHCoVs-OC43
Assay Info: organism not typed
Format: cell-based
Recorded Conditions: drug alone; HRT-18 cells, MOI 0.025, 48 h treatment, decrease of Rluc; read-out: EC50
Counter-ions that a name gives are not always drawn.
Under this convention, Yes denotes EC50 strictly below 3000 nM and No denotes EC50 at or above 3000 nM.

Examples from the recorded data:
>>> assigned_class("COC(=O)C1=C(C)NC(C)=C(C(=O)OCC(C)C)C1c1ccccc1[N+](=O)[O-] (centres unmarked) [Nisoldipine]")
"Yes"
>>> assigned_class("C=CC[C@@H]1/C=C(\\C)C[C@H](C)C[C@H](OC)[C@H]2O[C@@](O)(C(=O)C(=O)N3CCCC[C@H]3C(=O)O[C@H](/C(C)=C/[C@@H]3CC[C@@H](O)[C@H](OC)C3)[C@H](C)[C@@H](O)CC1=O)[C@H](C)C[C@@H]2OC [Tacrolimus hydrate]")
"No"

Lookup: Input O=C(Nc1ccc(Oc2ccc(Cl)cc2)c(Cl)c1)c1cc(I)cc(I)c1O [Rafoxanide] ; condition: EC50 strictly below 3000 nM. Does it hold?
Found: No

Lookup: Here's an entry: COC(=O)C1=C(C)NC(C)=C(C(=O)OCCN2CCN(C(c3ccccc3)c3ccccc3)CC2)C1c1cccc([N+](=O)[O-])c1 (centres unmarked) [Manidipine dihydrochloride] . Is its EC50 below 3000 nM?
Found: No

Lookup: Input C#C[C@]1(O)CC[C@H]2[C@@H]3CCC4=Cc5oncc5C[C@]4(C)[C@H]3CC[C@@]21C [Danazol] ; condition: EC50 strictly below 3000 nM. Does it hold?
Found: Yes

Lookup: Does this compound meet the criterion EC50 < 3000 nM? CCN(CC)Cc1cc(Nc2ccnc3cc(Cl)ccc23)ccc1O [Amodiaquine]
Found: Yes

Lookup: Problem: For the compound Cc1cc(/C=C/C#N)cc(C)c1Nc1ccnc(Nc2ccc(C#N)cc2)n1 [Rilpivirine] , is EC50 under 3000 nM?
Found: No

Lookup: I wonder whether COc1cc2nc(N3CCN(C(=O)C4COc5ccccc5O4)CC3)nc(N)c2cc1OC (centres unmarked) [Doxazosin mesylate] has EC50 below 3000 nM. Can you tell?
Found: No

Lookup: Just wondering, is EC50 of CN(C)CCCN1c2ccccc2Sc2ccc(Cl)cc21 [chlorpromazine] below 3000 nM?
Found: No

Lookup: is_below(EC50, 3000 nM) for Cc1ccc(Sc2ccccc2N2CCNCC2)c(C)c1 [Vortioxetine hydrobromide] ?
Found: Yes

Lookup: Input CC(=O)Oc1ccccc1C(=O)Nc1ncc([N+](=O)[O-])s1 [Nitazoxanide] ; condition: EC50 strictly below 3000 nM. Does it hold?
Found: Yes

Lookup: Dear reviewer, please state whether C[C@H]1O[C@@H](O[C@H]2[C@@H](O)C[C@H](O[C@H]3[C@@H](O)C[C@H](O[C@H]4CC[C@@]5(C)[C@H](CC[C@@H]6[C@@H]5C[C@@H](O)[C@]5(C)[C@@H](C7=CC(=O)OC7)CC[C@]65O)C4)O[C@@H]3C)O[C@@H]2C)C[C@H](O)[C@@H]1O [Digoxin] has EC50 strictly beneath 3000 nM.
Found: Yes

Lookup: Does this compound meet the criterion EC50 < 3000 nM? Cc1c(O)cccc1C(=O)N[C@@H](CSc1ccccc1)[C@H](O)CN1C[C@H]2CCCC[C@H]2C[C@H]1C(=O)NC(C)(C)C [Nelfinavir mesylate]
Found: Yes

Lookup: Record C=C1/C(=C\C=C2/CCC[C@]3(C)[C@@H]([C@H](C)CCCC(C)C)CC[C@@H]23)C[C@@H](O)C[C@@H]1O [Alfacalcidol] : is its EC50 strictly below 3000 nM?
Found: Yes

* * *

Assay Info: Cell viability assay (MTT) in HRT-18 cells
Recorded Conditions: human, CC50 (μM), drug alone; HRT-18 cells, 48 h treatment, MTT
Where a name gives a salt, the structure may show the parent alone.
Measurement Kind: CC50 at 48 h

>>> data_value("C=C1/C(=C\\C=C2/CCC[C@]3(C)[C@@H]([C@H](C)CCCC(C)C)CC[C@@H]23)C[C@@H](O)C[C@@H]1O")
"> 10 µM"
>>> data_value("CCN(CC)C(=S)SSC(=S)N(CC)CC")
"0.23 µM"
>>> data_value("CN(C)CCCN1c2ccccc2Sc2ccc(Cl)cc21")
"> 10 µM"

Would you mind listing CC50 at 48 h for each of the following compounds?
1. Cc1c(O)cccc1C(=O)N[C@@H](CSc1ccccc1)[C@H](O)CN1C[C@H]2CCCC[C@H]2C[C@H]1C(=O)NC(C)(C)C [Nelfinavir mesylate]
2. COc1cc2nc(N3CCN(C(=O)C4COc5ccccc5O4)CC3)nc(N)c2cc1OC (stereo not drawn) [Doxazosin mesylate]
3. CN[C@H]1CC[C@@H](c2ccc(Cl)c(Cl)c2)c2ccccc21 [Sertraline hydrochloride]
4. CC(C)/N=c1\cc2n(-c3ccc(Cl)cc3)c3ccccc3nc-2cc1Nc1ccc(Cl)cc1
5. CCN(CC)CCOc1ccc(C(=C(Cl)c2ccccc2)c2ccccc2)cc1 [Clomiphene citrate]
6. C#C[C@]1(O)CC[C@H]2[C@@H]3CCC4=Cc5oncc5C[C@]4(C)[C@H]3CC[C@@]21C

Found:
["> 10 µM", "> 10 µM", "> 10 µM", "> 10 µM", "> 10 µM", "> 10 µM"]

Required: CC50 at 48 h, one value per compound below.
1. CN(C)[C@@H](CCOc1cccc2ccccc12)c1ccccc1 [Dapoxetine hydrochloride]
2. C[C@@H]1O[C@@H](O[C@H]2C[C@@H](O)[C@]3(CO)[C@H]4[C@H](O)C[C@]5(C)[C@@H](C6=CC(=O)OC6)CC[C@]5(O)[C@@H]4CC[C@]3(O)C2)[C@H](O)[C@H](O)[C@H]1O
3. CN(C)CCOc1ccc(/C(=C(/CCCl)c2ccccc2)c2ccccc2)cc1 [Toremifene Citrate]
4. CC(=O)Oc1ccccc1C(=O)Nc1ncc([N+](=O)[O-])s1 [Nitazoxanide]
5. Clc1ccc(C(Cn2ccnc2)OCc2ccsc2Cl)c(Cl)c1 (stereo not drawn)

Found:
["> 10 µM", "0.028 µM", "> 10 µM", "> 10 µM", "> 10 µM"]

// input: 7 compounds below; output: CC50 at 48 h for each
1. CCOC(=O)C1=C(COCCN)NC(C)=C(C(=O)OC)C1c1ccccc1Cl (stereo not drawn) [Amlodipine benzenesulphonate]
2. CCCCCCCCc1ccc(CCC(N)(CO)CO)cc1 [Fingolimod hydrochloride]
3. Cc1cc(/C=C/C#N)cc(C)c1Nc1ccnc(Nc2ccc(C#N)cc2)n1
4. NC(=O)c1ncn([C@@H]2O[C@H](CO)[C@@H](O)[C@H]2O)n1
5. CC/C(=C(\c1ccccc1)c1ccc(OCCN(C)C)cc1)c1ccccc1
6. C[C@H]1O[C@@H](O[C@H]2[C@@H](O)C[C@H](O[C@H]3[C@@H](O)C[C@H](O[C@H]4CC[C@@]5(C)[C@H](CC[C@@H]6[C@@H]5CC[C@]5(C)[C@@H](C7=CC(=O)OC7)CC[C@]65O)C4)O[C@@H]3C)O[C@@H]2C)C[C@H](O)[C@@H]1O
7. CCN(CC)CCOc1ccc2c(c1)C(=O)c1cc(OCCN(CC)CC)ccc1-2 [Tilorone dihydrochloride]

Found:
1: > 10 µM; 2: 10 µM; 3: 10 µM; 4: > 10 µM; 5: > 10 µM; 6: 0.08 µM; 7: > 10 µM

Give one value of CC50 at 48 h per listed compound.
1. CN1CCN(CCCN2c3ccccc3Sc3ccc(C(F)(F)F)cc32)CC1 [Trifluoperazine dihydrochloride]
2. CN(C)CC/C=C1/c2ccccc2Sc2ccc(Cl)cc21

Found:
> 10 µM
> 10 µM
